target: Gal(b1-4)GlcNAc(b1-3)Gal(b1-4)[Fuc(a1-3)]GlcNAc(b1-3)Gal(b1-4)[Fuc(a1-3)]GlcNAc; experiment: glycan array binding signal (z-score within array); higher = stronger binding; settings: glycan notation: IUPAC condensed, linker removed
The full list was thinned out, with the strongest signals kept by preference.
measured_metric: glycan array binding signal (z-score)
Reply: number alone, nothing else.

Quick one: glycan array binding signal (z-score) of R410P1E11 (Tachypleus tridentatus), TAL2_TACTR (protein) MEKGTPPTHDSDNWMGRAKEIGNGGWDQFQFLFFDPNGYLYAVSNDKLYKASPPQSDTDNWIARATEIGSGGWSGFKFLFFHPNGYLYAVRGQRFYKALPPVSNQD ? -0.411
